- Target Of Assay: sCoV2-RBD (Fc-tagged RBD of SARS-CoV-2 S protein) (SARS-CoV-2; human, UniProt P0DTC2 319-541)
- Test: ELISA titration on coated sCoV2-RBD

Binder | Unit Abbrev | EC50
CoV2-18 (antibody, V domains shown) VH: QVQLVQSGAEVKKPGSSVKVSCKASGGTFSNYGISWVRQAPGQGLEWMGGIIPIFGTANYAQKFQGRVTITADKSTRTAYMELSSLRFEDTAVYYCARDRDDALTGLGLGGGFDIWGQGTMVTVSS VL: QAVVTQPPSASGTPGQRVTISCSGSTSNIGTNTANWYQHLPGTAPKLLIYGNDRRPSGVPDRFSGSKSVTSASLAISGLQSEDEADYYCAAWDERLNGYVFGTGTKLTVL | nM | 2.41
